growth values by entry
# System: HS 578T breast
# Protocol summary: NCI-60 one-dose screen, 48 h (100 = growth as untreated, 0 = no growth, -100 = all killed)
# Test parameters: 10 µM unless noted
About 83,000 compounds went through this panel and 20% of them were active in at least one assay; those are over-represented in the sample as a whole.
Measured endpoint: growth (%)

molecule=O=S(=O)(O)c1cnccn1 assay_target="HS 578T breast" assay_result=112
molecule=O=C(O)c1cc2c(s1)C(=O)c1sccc1C2=O assay_target="HS 578T breast" assay_result=-18.8
molecule=O=C(/C(Cl)=N/O)c1ccc(-c2ccccc2)cc1 assay_target="HS 578T breast" assay_result=110
molecule=Clc1ccc(Cc2nc3ccccc3s2)cc1 assay_target="HS 578T breast" assay_result=100
molecule=COc1cc(/C=C/C(=O)CC(=O)/C=C/c2ccc(O)c(OC)c2)ccc1O assay_target="HS 578T breast" assay_result=55.6
molecule="CC12CCC(O)CC1=CCC1C2CCC2(C)C3=NN=CC3CC12 (configuration not stated)" assay_target="HS 578T breast" assay_result=95.6
molecule=O=[N+]([O-])c1ccc(C(Br)c2ccc([N+](=O)[O-])cc2)cc1 assay_target="HS 578T breast" assay_result=107
molecule=Cc1cc(C(=O)c2ccc(Cl)cc2)ccc1O assay_target="HS 578T breast" assay_result=116
molecule=CC1=CC(=NC(=O)CBr)C=C/C1=N\S(=O)(=O)c1ccccc1 assay_target="HS 578T breast" assay_result=89.1
molecule="CC(/C=N/NC(N)=S)Cc1ccc(C(C)C)cc1 (configuration not stated)" assay_target="HS 578T breast" assay_result=71.7
molecule=CC(=O)Nc1ccc(C(=O)CCl)cc1 assay_target="HS 578T breast" assay_result=19
molecule=CCCCCCCCCCCCNCCCc1ccccc1 assay_target="HS 578T breast" assay_result=88.6

---

# Test system: BT-549 breast
# Protocol summary: NCI-60 one-dose screen, 48 h
# Test parameters: 10 µM unless noted
About 83,000 compounds went through this panel and 20% of them were active in at least one assay; those are over-represented in the sample as a whole. Activity calls are given as the source filed them. The calls were made as follows: active = growth percent below 10; inactive = the rest.
Possible outcomes: true (1) for active, false (0) for inactive

molecule=CC(C)N=C(N)/N=C(\N)Nc1ccc2ccc3ccccc3c2c1 category="true (1)"
molecule=CN(C)CCN(C)CC(C)(C)C(=O)/C=C/c1ccc(Cl)c(Cl)c1 category="true (1)"
molecule=Cc1ccc(/C=C2\CNC/C(=C\c3ccc(C)cc3)C2=O)cc1 category="true (1)"
molecule="O=[N+]([O-])CC(O)c1ccccc1 (stereo not given)" category="false (0)"
molecule=COc1cc(NC(=O)C2=C(C)NC(C)=C(C(=O)Nc3cc(OC)c(Cl)cc3OC)C2c2cccc([N+](=O)[O-])c2)c(OC)cc1Cl category="false (0)"
molecule=CCOc1ccc(Nc2nc3c(s2)C(=O)c2ccccc2C3=O)cc1 category="false (0)"
molecule="CCOc1ccc(C(CN2CCOCC2)C(C)=O)cc1OC (stereo not given)" category="false (0)"
molecule=C1=C(c2ccccc2)c2ccccc2C1 category="false (0)"
molecule=Cc1cc(Br)c2nsnc2c1[N+](=O)[O-] category="false (0)"
molecule=Cc1nc([N+](=O)[O-])c(Sc2nncc(-c3ccccc3)n2)n1C category="false (0)"
molecule=O=C(c1ccccc1)c1ccc(O)c2ncccc12 category="false (0)"
molecule=CCCCCCCCCCCCNCCCc1ccccc1 category="false (0)"
molecule="COC1CC(C)C(OC)c2cc(O)cc(c2O)NC(=O)/C(C)=C/C=C\\C(C)C(OC(N)=O)/C(C)=C\\C(C)C1OC (stereo not given)" category="true (1)"
molecule=CCCOC(=O)c1nc(N(CC2CCCCC2)C(=O)NC)sc1/N=C/c1ccccc1 category="false (0)"
molecule="C=C(C(N)=O)C(N)C(=O)O (stereo not given)" category="false (0)"
molecule=Oc1ccccc1N=Cc1ccccc1 category="false (0)"
molecule=CN1CCC(c2ccccc2)(c2ccccc2)C(=O)C1 category="false (0)"
molecule=CCC(=O)c1cc([N+](=O)[O-])c(Br)s1 category="false (0)"
molecule=CN1CSC(=S)N(Cc2ccccc2)C1 category="false (0)"
molecule="CCC(C)(O)Cc1ccc(Cl)cc1 (stereo not given)" category="false (0)"
molecule=O=[N+]([O-])C=C(c1ccccc1)c1ccccc1 category="false (0)"
molecule=Cc1cc(C)c([I+]c2c(C)cc(C)cc2C)c(C)c1 category="true (1)"
molecule="O=C(c1ccccc1)C(Br)[N+](=O)[O-] (stereo not given)" category="false (0)"
molecule=CCCCCCN(CCCCCC)CCCNc1nccc2ccccc12 category="false (0)"
molecule="CC(=O)OC1CC2CCC1(C)C2(C)C (stereo not given)" category="false (0)"
